B1: Hairpin Ribozyme (parent)
chain: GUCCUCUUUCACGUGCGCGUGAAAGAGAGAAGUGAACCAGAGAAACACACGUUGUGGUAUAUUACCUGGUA

Variants of: B1
assay.summary: self-cleavage, relative activity (ratio to wild type); higher = more cleavage; co-transcriptional
value.type: self-cleavage
Answers are plain numbers.

GUCCCCUUUCACGUGCGCGUGAAAGAGAGAAGUGAACCAGAGAAACACACCUUGUGGUAUAUUACCUGGUA | 0.732
GUCCUCUUUCACGUGCGCGUGAAAGAGAGAAGUGAACCAGAGAAACACACGUUGUGGGAUAUUAGCUGGUA | 0.146
GUCCUCUUUCACGUGCGCGUGAAAGAGAGAAGUGAACCAAAGAAACACACGUUUUGGUAUAUUACCUGGUA | 0.183
GUCCUCUUUCACGUGCGCGUGAAAGAGAGAACUGAACCAGAGAAACACACGCUGUGGUAUAUUACCUGGUA | 0.131
GUCCUCUUUCACGUGCGCGUGAAAGAGAGAAGUGAACCAGUGAAACACACGUUGUGGUAUAUUACCUUGUA | 0.423

Each variant below has a recorded value; state its self-cleavage.
1. GUCCUCUUCCACGUGCGCGUGAAAGAGAGAAGUGAACCAGAGAAACACACGUUGAGGUAUAUUACCUGGUA
2. GUCCUCUUUCACGUGCGCGUGAAAGAGAGAAGUGAACCAGAGAAACAAACGUUGUGGUAUAUUACCAGGUA
3. GUCCUCUUUCACGUGCGCGUGAAAGAGAGAAAUGAGCCAGAGAAACACACGUUGUGGUAUAUUACCUGGUA
4. GUCCUCUUUCACUUGCGCGUGAAAGAGAGAAGUGAACCAGAGAAACACACGUUGUGGUAUAUUCCCUGGUA

0.299
0.11
0.0788
0.267

For each of the items listed, what is its self-cleavage?
1. GUCCUCUCUCACGUGCGCGUGAAAGAGAGAAGUGAACCAGAGAAACACACGUUGUGGUAUAUUACCCGGUA
2. GUCCUCUUUCACGUGCGCGUGAAAGAGAGAAGUGAACCAGAGAAAUCCACGUUGUGGUAUAUUACCUGGUA

0.159
0.149
